Attribution: patent US11008340B2

- systemTested: full-length RORγt in Jurkat cells (Homo sapiens, UniProt P51449)
- Construct: transcriptional activity of the full-length RORγt in Jurkat cells; host or cells: Jurkat cells (ATCC TIB-152)
- Sequence (P51449 1-497 isoform P51449-2): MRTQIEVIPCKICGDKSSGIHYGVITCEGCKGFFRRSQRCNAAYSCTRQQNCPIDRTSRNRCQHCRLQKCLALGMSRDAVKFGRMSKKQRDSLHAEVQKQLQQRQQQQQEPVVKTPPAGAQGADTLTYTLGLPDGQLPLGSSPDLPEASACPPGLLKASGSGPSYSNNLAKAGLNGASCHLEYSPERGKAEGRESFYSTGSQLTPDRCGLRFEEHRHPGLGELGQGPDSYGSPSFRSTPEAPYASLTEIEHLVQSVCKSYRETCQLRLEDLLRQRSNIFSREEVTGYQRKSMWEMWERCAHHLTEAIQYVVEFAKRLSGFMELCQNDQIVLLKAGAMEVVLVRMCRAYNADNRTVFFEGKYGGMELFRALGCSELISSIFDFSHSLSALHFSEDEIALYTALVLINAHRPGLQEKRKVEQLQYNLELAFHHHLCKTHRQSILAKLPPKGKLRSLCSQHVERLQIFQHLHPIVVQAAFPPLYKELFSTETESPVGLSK
- assayName: RORγt 5×RORE Assay in Jurkat Cells (Assay 2)
- Type: cell-based
- assayContext: 5×RORE luciferase reporter, read-out: Avg ROR γt/5x IC50
pIC50: −log10 of the molar value.
# pIC50 listing for each entry below

molecule	pIC50
CCS(=O)(=O)c1ccc(CNC(=O)c2ccc3c(c2)CCN(Cc2ccc(C#N)cc2)[C@H]3C(C)C)cc1 (single isomer, unassigned)	> 7.00
CCS(=O)(=O)c1ccc(CNC(=O)c2sc3nc(C)nc(OCc4ccc(C(F)(F)F)cc4)c3c2C)cc1	6.00 to 7.00
CCS(=O)(=O)c1ccc([C@H](CO)NC(=O)c2ccc3c(OCC4CCOCC4)nc(C)cc3c2)cc1	< 6.00
CCS(=O)(=O)c1ccc([C@H](CO)NC(=O)c2ccc3c(COc4ccc(C(F)(F)F)cc4)nccc3c2)cc1	6.00 to 7.00
CCS(=O)(=O)c1ccc(CNC(=O)c2ccc3c(c2)C(C)(C)CN(Cc2cnc(C)cn2)[C@H]3C(C)C)cc1 (single isomer, unassigned)	6.00 to 7.00
CCS(=O)(=O)c1ccc([C@H](CO)NC(=O)c2ccc3c(C4CC4)n(Cc4ccc(C(F)(F)F)cc4)nc3c2)nc1	> 7.00
CCS(=O)(=O)c1ccc([C@H](CO)NC(=O)c2ccc3c(OCc4ccc(F)cc4)nc(C)cc3c2)cc1	6.00 to 7.00
CCS(=O)(=O)c1ccc([C@H](CO)NC(=O)c2sc3nc(C)nc(OCc4ccc(C(F)(F)F)cc4)c3c2C)cc1	> 7.00
CCS(=O)(=O)c1ccc([C@H](CO)NC(=O)c2ccc3c(C4CC4)n(C[C@H]4CC[C@H](C(F)(F)F)CC4)nc3c2)nc1	> 7.00
CCS(=O)(=O)c1ccc(CNC(=O)c2ccc3c(c2)CCN(Cc2ccc(C#N)cn2)[C@H]3C(C)C)cc1 (single isomer, unassigned)	> 7.00
CCS(=O)(=O)c1ccc(CNC(=O)c2sc3nc(C)nc(OC[C@H]4CC[C@H](C(F)(F)F)CC4)c3c2C)cc1	6.00 to 7.00
CCS(=O)(=O)c1ccc(CNC(=O)c2ccc3c(c2)CCN(c2ncc(C(F)(F)F)cn2)C3C(C)C)cc1 (centres unmarked)	< 6.00
CCS(=O)(=O)c1ccc(CNC(=O)c2ccc3c(c2)CCN(Cc2ccc(Cl)cc2)[C@H]3C(C)C)cc1 (single isomer, unassigned)	> 7.00
CCS(=O)(=O)c1ccc(CNC(=O)c2ccc3c(c2)CCN(Cc2ccc(Cl)cc2)[C@@H]3C(C)C)cc1 (single isomer, unassigned)	6.00 to 7.00
CCS(=O)(=O)c1ccc([C@H](CO)NC(=O)c2ccc3c(C4CC4)n(C[C@H]4CC[C@H](C(F)(F)F)CC4)nc3c2)cc1	> 7.00
CCS(=O)(=O)c1ccc([C@H](CO)NC(=O)c2ccc3c(OC[C@H]4CC[C@H](C(F)(F)F)CC4)nccc3c2)cc1	6.00 to 7.00
CCS(=O)(=O)c1ccc([C@H](CO)NC(=O)c2sc3nc(C)nc(OC[C@H]4CC[C@H](C(F)(F)F)CC4)c3c2C)cc1	> 7.00
CCS(=O)(=O)c1ccc(CNC(=O)c2ccc3c(OC4CCC(C(F)(F)F)CC4)nccc3c2)cc1 (single isomer, unassigned) [Hy1A-3.1]	< 6.00
CCS(=O)(=O)c1ccc([C@H](CO)NC(=O)c2ccc3c(OCC4CCN(CC(F)(F)F)CC4)nc(C)cc3c2)cc1	6.00 to 7.00
CCS(=O)(=O)c1ccc(CNC(=O)c2ccc3c(C4CC4)n(C[C@H]4CC[C@H](C(F)(F)F)CC4)nc3c2)nc1	> 7.00
CCS(=O)(=O)c1ccc([C@H](CO)NC(=O)c2ccc3c(OC[C@H]4CC[C@H](C(F)(F)F)CC4)nc(C)cc3c2)nc1 (single isomer, unassigned)	> 7.00
CCS(=O)(=O)c1ccc([C@H](CO)NC(=O)c2ccc3c(Oc4ccc(OC(F)(F)F)cc4)nc(C)cc3c2)cc1	6.00 to 7.00
CCS(=O)(=O)c1ccc(CNC(=O)c2ccc3c(c2)CCN(Cc2ccc(F)cc2)C3C(C)C)cc1 (racemic)	> 7.00
CCS(=O)(=O)c1ccc(CNC(=O)c2ccc3c(c2)CCN(Cc2ncc(Br)cn2)[C@H]3C(C)C)cc1 (single isomer, unassigned)	6.00 to 7.00
CCS(=O)(=O)c1ccc([C@@H](CO)NC(=O)c2ccc3c(OC[C@H]4CC[C@H](C(F)(F)F)CC4)nc(C)cc3c2)cc1	> 7.00
CCS(=O)(=O)c1ccc(CNC(=O)c2cnc3c(C4CC4)n(C[C@H]4CC[C@H](C(F)(F)F)CC4)nc3c2)cc1	> 7.00
